Test system: Pseudomonas aeruginosa SG 137
Assay: In-vitro test, inhibitory concentration by dilution series
Assay type: cell-based
Details: SG137; V = Pseudomonas aeruginosa SG 137; step = concentration with no visible growth; read-out: Hemmkonzentration nach Verdünnung (Verdünnungsreihe) (converted)
Hi there, I'd appreciate the recorded MIC for every entry that follows.
Give bare numbers, in µM.

CCc1cc2c(OC(=O)OCC(C)C)c(C(=O)N[C@@H](C(=O)N[C@@H]3C(=O)N4[C@@H]3SC(C)(C)[C@@H]4C(=O)O)c3ccccc3)cnc2cc1COc1ccc(Cl)c(C)c1 ... 6.25

Look up MIC for the entries below, preserving their order.
1. CCOC(=O)Oc1c(C(=O)N[C@@H](C(=O)N[C@@H]2C(=O)N3[C@@H]2SC(C)(C)[C@@H]3C(=O)O)c2ccccc2)cnc2cc(COc3ccc(Br)cc3)c(CC)cc12
2. CCCOCc1cc2ncc(C(=O)N[C@@H](C(=O)N[C@@H]3C(=O)N4[C@@H]3SC(C)(C)[C@@H]4C(=O)O)c3ccccc3)c(OC(=O)OCC)c2cc1CC
3. CCc1cc2c(OC(=O)OCC(C)C)c(C(=O)N[C@@H](C(=O)N[C@@H]3C(=O)N4[C@@H]3SC(C)(C)[C@@H]4C(=O)O)c3ccccc3)cnc2cc1COC(C)C
4. COc1cc2ncc(C(=O)N[C@@H](C(=O)N[C@@H]3C(=O)N4[C@@H]3SC(C)(C)[C@@H]4C(=O)O)c3ccccc3)c(OC(=O)OCC(C)C)c2cc1OC

1: 12.5; 2: 3.12; 3: 6.25; 4: 12.5

* * *

Staphylococcus aureus data, read-out MIC

// known answers, use as guide
CCCOCc1cc2ncc(C(=O)N[C@@H](C(=O)N[C@@H]3C(=O)N4[C@@H]3SC(C)(C)[C@@H]4C(=O)O)c3ccccc3)c(OC(=O)OCC)c2cc1CC [Beisp. 5] ... 6.25 µM
CCOCc1cc2ncc(C(=O)N[C@@H](C(=O)N[C@@H]3C(=O)N4[C@@H]3SC(C)(C)[C@@H]4C(=O)O)c3ccccc3)c(OC(=O)OCC)c2cc1CC [Beisp. 6] ... 12.5 µM

Attention now turns to another entry.
If you can, please state the reported MIC value of COc1cc2ncc(C(=O)N[C@@H](C(=O)N[C@@H]3C(=O)N4[C@@H]3SC(C)(C)[C@@H]4C(=O)O)c3ccccc3)c(OC(=O)OCC(C)C)c2cc1OC [Beisp. 20] .
25 µM

* * *

# collection of MIC values tested on Proteus vulgaris OX 19
For clarity, give the value followed by its unit.

Below are some compounds; for each one, tell me its MIC.
1. CCOC(=O)Oc1c(C(=O)N[C@@H](C(=O)N[C@@H]2C(=O)N3[C@@H]2SC(C)(C)[C@@H]3C(=O)O)c2ccccc2)cnc2cc(COc3ccc(C)cc3)c(CC)cc12 [Beisp. 3]
2. CCc1cc2c(OC(=O)OCC(C)C)c(C(=O)N[C@@H](C(=O)N[C@@H]3C(=O)N4[C@@H]3SC(C)(C)[C@@H]4C(=O)O)c3ccccc3)cnc2cc1COC(C)CC (some centres unmarked) [Beisp. 22]
3. COc1ccc2ncc(C(=O)N[C@@H](C(=O)N[C@@H]3C(=O)N4[C@@H]3SC(C)(C)[C@@H]4C(=O)O)c3ccccc3)c(O)c2c1 [Beisp. 9]
4. CCc1cc2c(OC(=O)OCC(C)C)c(C(=O)N[C@@H](C(=O)N[C@@H]3C(=O)N4[C@@H]3SC(C)(C)[C@@H]4C(=O)O)c3ccccc3)cnc2cc1COC(C)C [Beisp. 21]
5. CCCCOCc1cc2ncc(C(=O)N[C@@H](C(=O)N[C@@H]3C(=O)N4[C@@H]3SC(C)(C)[C@@H]4C(=O)O)c3ccccc3)c(OC(=O)OCC)c2cc1CC [Beisp. 4]

1: 0.39 µM; 2: 0.39 µM; 3: 0.39 µM; 4: 0.39 µM; 5: 0.78 µM
